Values from patent US20060167106A1

# Test system: Hsp70
# run.description: Hsp70 Western blotting in MDA-435 cells
# Assay type: cell-based
# condition: 0.5 μM, 6 hours of treatment, normalized to background and GAPDH
Non-standard residues stand in square brackets, D forms with d. Residues, ends and D or L forms follow the SMILES beside them. *: point of attachment. Nle = CCCC[C@H](N)C(=O)O; Cbz = O=C(OCc1ccccc1)*
observation.type: percentage change in Hsp70 expression relative to DMSO control (%)
One number for each entry, in %.

Illustrative cases are given below, each with its answer.
>>> number("CC(=O)O[C@H]1C(=O)[C@@]2(C)[C@H]([C@H](OC(=O)c3ccccc3)[C@]3(O)C[C@H](OC(=O)[C@H](O)[C@@H](NC(=O)c4ccccc4)c4ccccc4)C(C)=C1C3(C)C)[C@]1(OC(C)=O)CO[C@@H]1C[C@@H]2O [Taxol]")
86
>>> number("CN(NC(=O)CC(=O)NN(C)C(=S)c1ccccc1)C(=S)c1ccccc1 [Compound 1]")
980
>>> number("CCCC[C@@H](C=O)NC(=O)[C@H](CC(C)C)NC(=O)[C@H](CC(C)C)NC(C)=O [ALLN] (Ac-Leu-Leu-[Nle]-aldehyde)")
82

// switching to the query compound
Q: Tell me the measured percentage change in Hsp70 expression relative to DMSO control of CC(C)C[C@@H](C=O)NC(=O)[C@H](CC(C)C)NC(=O)[C@H](CC(C)C)NC(=O)OCc1ccccc1 [MG132] (Cbz-Leu-Leu-Leu-aldehyde) , please.
A: 472
